- test system: tissue plasminogen activator (tPA) (Homo sapiens, UniProt P00750)
- Sequence (P00750 36-562, species assumed): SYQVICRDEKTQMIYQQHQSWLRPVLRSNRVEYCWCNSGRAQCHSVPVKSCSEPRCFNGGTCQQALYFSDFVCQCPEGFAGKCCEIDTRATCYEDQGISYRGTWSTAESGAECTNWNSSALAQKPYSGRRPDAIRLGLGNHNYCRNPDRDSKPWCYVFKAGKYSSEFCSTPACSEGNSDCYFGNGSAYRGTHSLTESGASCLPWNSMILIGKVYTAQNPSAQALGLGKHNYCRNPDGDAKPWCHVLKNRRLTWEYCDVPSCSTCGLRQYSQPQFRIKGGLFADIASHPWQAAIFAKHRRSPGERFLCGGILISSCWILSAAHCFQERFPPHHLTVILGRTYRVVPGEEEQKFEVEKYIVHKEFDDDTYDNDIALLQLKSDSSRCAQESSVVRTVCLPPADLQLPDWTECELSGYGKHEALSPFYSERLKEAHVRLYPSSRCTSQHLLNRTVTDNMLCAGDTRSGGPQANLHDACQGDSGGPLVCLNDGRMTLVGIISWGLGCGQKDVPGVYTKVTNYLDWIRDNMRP
- run description: fibrin-plate method, plasmin formation induced by tPA
- condition info: fibrin plate; hydrolysed area reduced to 50% of control
Square brackets hold non-standard residues; d marks the D form. Peptide text beside a SMILES is read from it. * marks the point of attachment. dCba = N[C@H](CC1CCC1)C(=O)O; Moc = COC(=O)*
measurement label: pIC50
Worth noting: pIC50 values are minus log10 of concentrations stated in mol/L.

Recorded pIC50 (molecule COC(=O)N[C@H](CC1CCC1)C(=O)N1CCC[C@H]1C(=O)N[C@H](C=O)CCCNC(=N)N [Example 2] (Moc-[dCba]-Pro-Arg-aldehyde) ): 4.04

Recorded pIC50 (molecule CCOC(=O)N[C@H](CC1CCC1)C(=O)N1CCC[C@H]1C(=O)N[C@H](C=O)CCCNC(=N)N [Example 1] ): 4.57

Recorded pIC50 (molecule CCOC(=O)N[C@H](CC1CCCC1)C(=O)N1CCC[C@H]1C(=O)N[C@H](C=O)CCCNC(=N)N [Example 4] ): 4.42

----------
- test system: plasmin (PL) (Homo sapiens, UniProt P00747)
- Sequence (P00747 581-810 limits assumed, species assumed): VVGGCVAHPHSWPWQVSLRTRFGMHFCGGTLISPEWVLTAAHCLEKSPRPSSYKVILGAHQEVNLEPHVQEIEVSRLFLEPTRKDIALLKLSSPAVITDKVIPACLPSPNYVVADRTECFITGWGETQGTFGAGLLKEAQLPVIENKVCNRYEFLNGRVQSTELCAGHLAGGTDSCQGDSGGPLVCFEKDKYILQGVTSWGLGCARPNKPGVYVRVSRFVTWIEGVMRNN
- Sequence (P00747 97-580 partner limits assumed, species assumed): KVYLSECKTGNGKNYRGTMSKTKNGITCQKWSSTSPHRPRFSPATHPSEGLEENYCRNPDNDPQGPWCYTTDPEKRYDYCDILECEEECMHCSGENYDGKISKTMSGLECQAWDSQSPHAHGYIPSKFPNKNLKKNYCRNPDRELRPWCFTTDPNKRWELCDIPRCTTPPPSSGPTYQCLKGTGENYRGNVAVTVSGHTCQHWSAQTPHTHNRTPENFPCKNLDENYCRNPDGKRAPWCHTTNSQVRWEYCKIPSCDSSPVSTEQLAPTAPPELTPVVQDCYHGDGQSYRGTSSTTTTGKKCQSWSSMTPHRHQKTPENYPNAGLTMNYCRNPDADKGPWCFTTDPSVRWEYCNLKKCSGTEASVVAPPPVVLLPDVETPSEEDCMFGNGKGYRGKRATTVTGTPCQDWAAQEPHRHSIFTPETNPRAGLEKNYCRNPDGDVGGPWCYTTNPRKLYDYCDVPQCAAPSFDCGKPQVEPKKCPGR
- run description: fibrin-plate method, plasmin
- Format: biochemical
- condition info: related to the activity of C1 (1/IC50 = 1)
Square brackets hold non-standard residues; d marks the D form. Peptide text beside a SMILES is read from it. * marks the point of attachment. dCba = N[C@H](CC1CCC1)C(=O)O; Moc = COC(=O)*
Flag rule - B: relative efficiency, PL less than 1 flags label 1; the remaining entries get label 0.

Does `CCOC(=O)N[C@H](CC1CCC1)C(=O)N1CCC[C@H]1C(=O)N[C@H](C=O)CCCNC(=N)N` have B: relative efficiency, PL strictly under 1?
label 0

Does `CC(C)(C)OC(=O)N[C@H](Cc1ccccc1)C(=O)N1CCC[C@H]1C(=O)N[C@H](C=O)CCCNC(=N)N` have B: relative efficiency, PL strictly under 1?
label 0

Does COC(=O)N[C@H](CC1CCC1)C(=O)N1CCC[C@H]1C(=O)N[C@H](C=O)CCCNC(=N)N [Example 2] (Moc-[dCba]-Pro-Arg-aldehyde) have B: relative efficiency, PL strictly under 1?
label 1

Does `CCOC(=O)N[C@H](CC1CCCC1)C(=O)N1CCC[C@H]1C(=O)N[C@H](C=O)CCCNC(=N)N` have B: relative efficiency, PL strictly under 1?
label 1

----------
Provide the recorded B: relative efficiency, tPA for the entries that follow.
- test system: tissue plasminogen activator (tPA) (Homo sapiens)
- run description: fibrin-plate method, plasmin formation induced by tPA
- Format: biochemical
- condition info: related to the activity of C1 (1/IC50 = 1)
Square brackets hold non-standard residues; d marks the D form. Peptide text beside a SMILES is read from it. * marks the point of attachment. dCba = N[C@H](CC1CCC1)C(=O)O; Moc = COC(=O)*

Recorded B: relative efficiency, tPA (compound `CCOC(=O)N[C@H](CC1CCC1)C(=O)N1CCC[C@H]1C(=O)N[C@H](C=O)CCCNC(=N)N` ): 4.9

Recorded B: relative efficiency, tPA (compound COC(=O)N[C@H](CC1CCC1)C(=O)N1CCC[C@H]1C(=O)N[C@H](C=O)CCCNC(=N)N [Example 2] (Moc-[dCba]-Pro-Arg-aldehyde) ): 1.4

Recorded B: relative efficiency, tPA (compound `CC(C)(C)OC(=O)N[C@H](Cc1ccccc1)C(=O)N1CCC[C@H]1C(=O)N[C@H](C=O)CCCNC(=N)N` ): 22.0

Recorded B: relative efficiency, tPA (compound `CCOC(=O)N[C@H](CC1CCCC1)C(=O)N1CCC[C@H]1C(=O)N[C@H](C=O)CCCNC(=N)N` ): 3.5

Recorded B: relative efficiency, tPA (compound CN[C@H](Cc1ccccc1)C(=O)N1CCC[C@H]1C(=O)N[C@H](C=O)CCCNC(=N)N [Example C1, D-MePhe-Pro-Arg-H, reference compound] ): 1.0

----------
- test system: UniProt:P00734
- run description: thrombin time (TT) plasma clotting test
- Type: biochemical
- condition info: Table 3; twofold prolongation compared to control; read-out: A: anticoagulant IC50, TT
- Protocol: Anticoagulant activity (i.e. inhibition of the proteolytic reactions in the process) is measured by anticoagulant tests, e.g. in the thrombin time (TT), activated partial thromboplastin time (APTT) and prothrombin time (PT) tests [E. J. W. Bovie et al., Mayo Clinic Laboratory Manual of Haemostasis; W. B. Saunders Co., Philadelphia (1971)]. Plasma, inhibited in spontaneous coagulation, e.g. citrate-plasma, is made to coagulate and the required coagulation time is measured. […]
Provide the recorded IC50 for the entries that follow.
Kindly answer with a numeric value in nM, unit omitted.

Recorded IC50 (molecule `CCOC(=O)N[C@H](Cc1ccccc1)C(=O)N1CCC[C@H]1C(=O)N[C@H](C=O)CCCNC(=N)N` ): 130

Recorded IC50 (molecule `CCOC(=O)N[C@H](CC1CCCC1)C(=O)N1CCC[C@H]1C(=O)N[C@H](C=O)CCCNC(=N)N` ): 100

Recorded IC50 (molecule `CC(C)OC(=O)N[C@H](CC1CCC1)C(=O)N1CCC[C@H]1C(=O)N[C@H](C=O)CCCNC(=N)N` ): 190

Recorded IC50 (molecule CCOC(=O)NC(CC1CCC1)C(=O)N1CCC[C@H]1C(=O)N[C@H](C=O)CCCNC(=N)N (mixture of isomers) ): 130
